# Tested on: SH-SY5Y cells
# PROCEDURE_TEXT: AK (adenylate kinase) release ToxiLight cytotoxicity assay; also: reference of the scale not given here
# EXPERIMENTAL_CONTEXT: PKIS2 primary screening
Threshold 100: AK strictly smaller gives Yes, otherwise No.

[[record]]
compound = "Cc1ccc(NC(=O)Nc2ccccc2)cc1-c1ccc(C(=O)Nc2ccncc2)cc1 [UNC10224992A]"
target_or_system = "SH-SY5Y cells"
answer_label = "No"

[[record]]
compound = "O=C(O)C(F)(F)F.O=C(O)C(F)(F)F.O=c1[nH]ccc2nc(N[C@@H]3CCCNC3)nc(Nc3ccc(S(=O)(=O)N4CCOCC4)cc3)c12 [UNC10225269A]"
target_or_system = "SH-SY5Y cells"
answer_label = "Yes"

[[record]]
compound = "CC(C)c1nc(-c2cccc(NS(=O)(=O)c3c(F)cccc3F)c2)c(-c2ccnc(Nc3ccc(N4CCOCC4)nc3)n2)s1.Cl [UNC10225142A]"
target_or_system = "SH-SY5Y cells"
answer_label = "Yes"

[[record]]
compound = "Nc1ncnc2occ(-c3ccc4c(c3)CCN4C(=O)Cc3cc(F)ccc3F)c12 [UNC10225000A]"
target_or_system = "SH-SY5Y cells"
answer_label = "No"

[[record]]
compound = "Nc1nc(-c2ccc3c(N)n[nH]c3c2)cc(N2CCCCC2)n1 [GSK2228768]"
target_or_system = "SH-SY5Y cells"
answer_label = "No"

[[record]]
compound = "CC(=O)Nc1ccc(COc2ccc(Nc3ccnc4cc(-c5ccccn5)ccc34)cc2)cc1.Cl [UNC10225390A]"
target_or_system = "SH-SY5Y cells"
answer_label = "Yes"

